# TEST_DETAILS: Metabolic stability in dog hepatocytes
# Format: in vitro ADME
# DETAILS: cryopreserved hepatocytes, 45 min incubation at 37 °C
ENDPOINT_LABEL: half-life at 2 µM (h)
Give bare numbers, in h.

Ask | What value of half-life at 2 µM has been recorded for this entry: NCC(N)C(=O)Nc1ccc(-c2nc3ccccc3s2)cc1 (stereo not shown) [ETN101]
Reply | 1.88

* * *

Consider the following molecules; for each one, report its Relative peak area (%).
# Tested on: rat hepatocytes
# TEST_DETAILS: Metabolite characterization in rat hepatocytes
# Type: in vitro ADME
# DETAILS: rat hepatocyte 1 h incubates of ETN101; ND:<1.2E+05 peak area
Answers are plain numbers, in %.

Past entries and their recorded results:
O=C(O)[C@H]1O[C@@H](Nc2ccc(-c3nc4ccccc4s3)cc2)[C@H](O)[C@@H](O)[C@@H]1O [M9, CJM-126 glucuronide]	0.1
NCC(N)C(=O)Nc1ccc(-c2nc3ccccc3s2)cc1 (stereo not drawn)	18.7
CC(=O)Nc1ccc(-c2nc3ccccc3s2)cc1	5.7

// next entry
Ask | What value of Relative peak area (%) has been recorded for this entry: Nc1ccc(-c2nc3ccccc3s2)cc1
Reply | 75.2
